Assay: Metabolic stability in rat liver microsomes
Type: in vitro ADME
Settings: 1 μM test item, 60 minutes, NADPH
observed.property: Metabolic stability in liver microsomes, Rat (percent parent compound remaining) (%)
Entry rule: numbers only, all in %.

Fill in: Metabolic stability in liver microsomes, Rat (percent parent compound remaining) of CC(C)Oc1ccc(-c2nn([C@@H](C)c3oc4ccc(F)cc4c(=O)c3-c3cccc(F)c3)c3ncnc(N)c23)cc1F [Compound B1] is ___
23.1

Fill in: Metabolic stability in liver microsomes, Rat (percent parent compound remaining) of CC(C)Oc1ccc(-c2nn([C@H](C)c3oc4ccc(F)cc4c(=O)c3-c3cccc(F)c3)c3ncnc(N)c23)cc1F [Compound B2] is ___
48.6

Fill in: Metabolic stability in liver microsomes, Rat (percent parent compound remaining) of CC(C)Oc1ccc(-c2nn([C@H](C)c3oc4ccccc4c(=O)c3-c3cccc(F)c3)c3ncnc(N)c23)cc1F [Compound A2] is ___
44.2

Fill in: Metabolic stability in liver microsomes, Rat (percent parent compound remaining) of CC(C)Oc1ccc(-c2nn(C(C)c3oc4ccccc4c(=O)c3-c3cccc(F)c3)c3ncnc(N)c23)cc1F (racemic) [Compound A] is ___
43.1

Fill in: Metabolic stability in liver microsomes, Rat (percent parent compound remaining) of CC(C)Oc1ccc(-c2nn(C(C)c3oc4ccc(F)cc4c(=O)c3-c3cccc(F)c3)c3ncnc(N)c23)cc1F (racemic) [Compound B] is ___
51.4

Fill in: Metabolic stability in liver microsomes, Rat (percent parent compound remaining) of CC(C)Oc1ccc(-c2nn([C@@H](C)c3oc4ccccc4c(=O)c3-c3cccc(F)c3)c3ncnc(N)c23)cc1F [Compound A1] is ___
35.8

* * *

Biological target: PI3K delta (Homo sapiens (Human), UniProt O00329)
Sequence (O00329 whole entry): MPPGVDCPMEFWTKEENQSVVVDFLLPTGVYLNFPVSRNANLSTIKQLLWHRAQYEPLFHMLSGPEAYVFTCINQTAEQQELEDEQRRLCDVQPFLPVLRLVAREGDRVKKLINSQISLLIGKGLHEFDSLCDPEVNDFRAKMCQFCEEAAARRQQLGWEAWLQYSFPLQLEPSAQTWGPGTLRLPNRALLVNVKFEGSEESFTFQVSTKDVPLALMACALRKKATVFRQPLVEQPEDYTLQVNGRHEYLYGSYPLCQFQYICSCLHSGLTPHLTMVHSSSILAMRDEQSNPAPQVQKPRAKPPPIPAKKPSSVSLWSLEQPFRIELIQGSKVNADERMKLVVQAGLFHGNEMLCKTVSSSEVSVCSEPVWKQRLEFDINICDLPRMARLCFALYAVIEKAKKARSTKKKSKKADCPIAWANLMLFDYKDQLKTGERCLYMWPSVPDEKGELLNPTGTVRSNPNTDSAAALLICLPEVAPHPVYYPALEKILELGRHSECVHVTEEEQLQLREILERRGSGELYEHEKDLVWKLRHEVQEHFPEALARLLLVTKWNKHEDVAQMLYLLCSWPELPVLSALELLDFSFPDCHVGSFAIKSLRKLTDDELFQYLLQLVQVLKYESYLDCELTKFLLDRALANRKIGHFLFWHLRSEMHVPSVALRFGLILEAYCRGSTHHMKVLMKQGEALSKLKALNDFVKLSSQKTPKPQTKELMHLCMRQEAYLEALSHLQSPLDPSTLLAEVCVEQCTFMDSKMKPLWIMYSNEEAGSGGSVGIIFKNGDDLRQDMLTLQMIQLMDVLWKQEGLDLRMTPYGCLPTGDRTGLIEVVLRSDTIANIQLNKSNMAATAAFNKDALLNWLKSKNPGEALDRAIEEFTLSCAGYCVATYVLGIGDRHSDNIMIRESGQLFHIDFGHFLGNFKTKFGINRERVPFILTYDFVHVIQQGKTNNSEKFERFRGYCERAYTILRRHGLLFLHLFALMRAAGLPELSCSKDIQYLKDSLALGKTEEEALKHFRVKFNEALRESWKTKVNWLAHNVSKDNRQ
Sequence (P27986 whole entry partner): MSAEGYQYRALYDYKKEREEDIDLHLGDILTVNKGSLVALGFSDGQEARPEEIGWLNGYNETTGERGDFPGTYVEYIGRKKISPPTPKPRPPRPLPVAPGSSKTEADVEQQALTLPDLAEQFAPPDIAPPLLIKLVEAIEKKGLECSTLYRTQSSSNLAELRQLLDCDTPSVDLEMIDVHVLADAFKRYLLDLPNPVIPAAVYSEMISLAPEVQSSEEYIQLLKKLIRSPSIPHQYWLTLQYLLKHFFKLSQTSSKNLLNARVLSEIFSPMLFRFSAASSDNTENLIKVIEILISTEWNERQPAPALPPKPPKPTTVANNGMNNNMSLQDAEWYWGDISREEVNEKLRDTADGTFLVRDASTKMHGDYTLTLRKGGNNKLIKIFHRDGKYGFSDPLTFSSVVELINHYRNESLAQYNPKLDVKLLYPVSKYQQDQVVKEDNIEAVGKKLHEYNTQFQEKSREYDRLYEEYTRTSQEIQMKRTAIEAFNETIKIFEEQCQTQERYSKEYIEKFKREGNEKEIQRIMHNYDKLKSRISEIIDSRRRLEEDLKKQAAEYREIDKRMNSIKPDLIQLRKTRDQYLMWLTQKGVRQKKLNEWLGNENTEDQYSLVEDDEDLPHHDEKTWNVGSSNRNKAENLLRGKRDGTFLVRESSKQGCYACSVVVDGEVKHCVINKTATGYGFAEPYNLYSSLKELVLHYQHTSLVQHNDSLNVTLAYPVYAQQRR
Assay: Assay 1: Fluorescent (HTRF) determination of PI3K enzyme activity, delta
Assay type: biochemical
observed.property: IC50 (nM)
Entry rule: numbers only, all in nM.

Fill in: IC50 of `CC(C)Oc1ccc(-c2nn([C@@H](C)c3oc4ccccc4c(=O)c3-c3cccc(F)c3)c3ncnc(N)c23)cc1F` is ___
13.8

Fill in: IC50 of CC(C)Oc1ccc(-c2nn(C(C)c3oc4ccccc4c(=O)c3-c3cccc(F)c3)c3ncnc(N)c23)cc1F (racemic) is ___
37.3

* * *

Assay: Metabolic stability in mouse liver microsomes
Format: in vitro ADME
Settings: 1 μM test item, 60 minutes, NADPH
observed.property: Metabolic stability in liver microsomes, Mouse (percent parent compound remaining) (%)
Entry rule: numbers only, all in %.

Fill in: Metabolic stability in liver microsomes, Mouse (percent parent compound remaining) of CC(C)Oc1ccc(-c2nn(C(C)c3oc4ccccc4c(=O)c3-c3cccc(F)c3)c3ncnc(N)c23)cc1F (racemic) is ___
32.6

Fill in: Metabolic stability in liver microsomes, Mouse (percent parent compound remaining) of `CC(C)Oc1ccc(-c2nn([C@@H](C)c3oc4ccc(F)cc4c(=O)c3-c3cccc(F)c3)c3ncnc(N)c23)cc1F` is ___
36.6

Fill in: Metabolic stability in liver microsomes, Mouse (percent parent compound remaining) of `CC(C)Oc1ccc(-c2nn([C@H](C)c3oc4ccccc4c(=O)c3-c3cccc(F)c3)c3ncnc(N)c23)cc1F` is ___
34.7

Fill in: Metabolic stability in liver microsomes, Mouse (percent parent compound remaining) of `CC(C)Oc1ccc(-c2nn([C@H](C)c3oc4ccc(F)cc4c(=O)c3-c3cccc(F)c3)c3ncnc(N)c23)cc1F` is ___
54.1

Fill in: Metabolic stability in liver microsomes, Mouse (percent parent compound remaining) of `CC(C)Oc1ccc(-c2nn([C@@H](C)c3oc4ccccc4c(=O)c3-c3cccc(F)c3)c3ncnc(N)c23)cc1F` is ___
46.1

Fill in: Metabolic stability in liver microsomes, Mouse (percent parent compound remaining) of CC(C)Oc1ccc(-c2nn(C(C)c3oc4ccc(F)cc4c(=O)c3-c3cccc(F)c3)c3ncnc(N)c23)cc1F (racemic) is ___
54.9
